Target: T1, purified recombinant MHC II protein, allele DRB1*1501 (human)
T1 construct: bought from Benaroya Research Institute; also called MHC-II DR molecule
Experiment: MHC II competition binding assay
measure: pIC50
The quantity pIC50 is defined as the negative base-10 logarithm of the molar concentration.

For record SAQWLNNYKKGYGYG [cluster 1 wild-type (C1WT) epitope peptide] the listed pIC50 is 3.99

Just for reference, patent US20210395713A1 is where these values come from.
